Origin of the recorded values: patent US10287337B2

Target: human calcitonin CGRP1 (CGRP1) membrane (Homo sapiens, UniProt O60894+Q16602)
Construct: purchased Perkin Elmer (Waltham, Mass.)
Sequence (O60894 27-148): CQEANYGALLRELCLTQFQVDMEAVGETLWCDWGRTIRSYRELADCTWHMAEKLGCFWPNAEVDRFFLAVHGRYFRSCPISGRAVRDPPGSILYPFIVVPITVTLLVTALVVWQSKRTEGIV
Sequence (Q16602 23-461): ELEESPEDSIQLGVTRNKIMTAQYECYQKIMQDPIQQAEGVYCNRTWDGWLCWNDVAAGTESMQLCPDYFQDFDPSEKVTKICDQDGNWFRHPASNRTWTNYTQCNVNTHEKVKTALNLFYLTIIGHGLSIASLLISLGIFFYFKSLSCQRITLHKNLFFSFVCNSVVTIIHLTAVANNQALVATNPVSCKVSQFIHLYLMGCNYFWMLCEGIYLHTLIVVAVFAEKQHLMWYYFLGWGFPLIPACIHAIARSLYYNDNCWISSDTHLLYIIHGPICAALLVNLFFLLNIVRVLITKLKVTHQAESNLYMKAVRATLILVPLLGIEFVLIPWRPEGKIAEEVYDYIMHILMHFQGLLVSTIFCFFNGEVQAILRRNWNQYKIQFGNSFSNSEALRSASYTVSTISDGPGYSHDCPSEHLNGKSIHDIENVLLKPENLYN
Format: binding
Conditions: 0.24 nM [125I]-CGRP; Mean±SD
No end group written: not given here.
// reported Hill slope per item

{"substance": "H-NFFPTNVGPFAF-NH2 [AFA- peptide 9, NH2-N-F-F-P-T-N-V-G-P-F-A-F-CONH2]", "Hill slope": 1.07}
{"substance": "H-NFLPTNVGPFAF-NH2 [AFA- peptide 7, NH2-N-F-L-P-T-N-V-G-P-F-A-F-CONH2]", "Hill slope": 1.03}
{"substance": "YVPTAVGPFAF-NH2 [CGRP 27-37]", "Hill slope": 1.62}
